Origin of the recorded values: ChEMBL document CHEMBL1127962

Consider the following compounds; for each one, report its Activity.
System: KB
Test: In vitro reversal of multidrug resistance (MDR) in human carcinoma cell line
Assay type: functional
Expressed in µM, but write only the number.

Input line: Please report Activity with KB for item COc1cccc(C(=O)CN2CCCCC2C(=O)N[C@@H](Cc2ccccc2)C(=O)N[C@H](/C=C/COC(=O)C(F)(F)F)C(C)C)c1 (some centres not stated) .
Output line: 49

Input line: Please report Activity with KB for item CC(C)[C@H](NC(=O)[C@H](Cc1ccccc1)NC(=O)C1CCCCN1CC(=O)c1ccc2ccccc2c1)C(=O)OC(C)(C)C (some centres not stated) .
Output line: 5

Input line: Please report Activity with KB for item C#C[C@@H](NC(=O)[C@H](Cc1ccccc1)NC(=O)C1CCCCN1CC(=O)c1cccc(OC)c1)C(C)C (some centres not stated) .
Output line: 11

Input line: Please report Activity with KB for item COc1cccc(C(=O)CN2CCCCC2C(=O)N[C@@H](Cc2ccccc2)C(=O)N[C@H](C(=O)OC(C)(C)C)C(C)C)c1 (some centres not stated) .
Output line: 6
